# credit: patent US20220153796A1

Target: HLA-A*01 (human)
Test: UV peptide exchange ELISA
Parameter peptide exchange yield: see the listing below.

Illustrative cases are given below, each with its answer.
[
  {
    "binder": "VTDGSLYEGVAY",
    "peptide exchange yield": "> 75%"
  },
  {
    "binder": "ASEQQALHTVQY",
    "peptide exchange yield": "> 75%"
  },
  {
    "binder": "NTDNNLAVY",
    "peptide exchange yield": "> 75%"
  }
]

Per the records, this binder ( ECDMAFHIY ) has peptide exchange yield equal to > 75%

peptide exchange yield reading for ATDLVVLDRY : > 75%

The binder listed as VVADTKMIEY has a reported peptide exchange yield of 10 to 20%

The binder VVDSVGGYLY showed peptide exchange yield equal to > 75%

Data point: WMFFVINY ; peptide exchange yield = 10 to 20%
